System: microorganisms
Assay: Morphology, biofilm and growth disruption by peptides (Table 5)
Assay type: cell-based
Design: key: A: Peptide aggregates; B: Less hyphal formation; Clumps; Diffuse clumps and small polyps; F: Diffuse growth; H: Thin; I: Growth inhibition; Microcolony formation; Rippled; Small polyps; Thick; W: Halo formation on top, microlonies on bottom
Settings: C. jeikeium

substance	Organism, effect
PF-124 (MADGQIAAIAKLHGVPVATRNIRHFQSFGVELINPWSG; Peptide with targeting and/or antimicrobial activity)	C. jeikeium (R)
MIHLTKQNTMEALHFIKQFYDMFFILNFNV [PF-040]	C. jeikeium (D)
PF-191 (QFCNFAWLFLASNNAQVSALA; Peptide with targeting and/or antimicrobial activity)	C. jeikeium (R)
PF-173 (AGRTAIVQGGG; Peptide with targeting and/or antimicrobial activity)	C. jeikeium (D)

These data points were gathered from patent US9597407B2.
